The reported measurements were obtained from ChEMBL document CHEMBL1777748.

- TEST_DESCRIPTION: Intrinsic clearance in human liver microsomes
- CONDITION_DETAILS: liver microsomes
PROPERTY_LABEL: microsomal CLint

The cases that follow already have their microsomal CLint on record.
Cc1cc(N(C)S(C)(=O)=O)ccc1-c1cc(C(F)(F)F)ccc1OCC(=O)O    < 3 µL/min/mg
CCS(=O)(=O)c1ccc(-c2cc(C(F)(F)F)ccc2O[C@H](C)C(=O)O)c(Cl)c1    < 3 µL/min/mg

Entry under test: `O=C(O)COc1ccc(C(F)(F)F)cc1-c1ccccc1` . Its microsomal CLint was < 3 µL/min/mg

----------
- TEST_DESCRIPTION: Intrinsic clearance in rat hepatocytes assessed per 1 x 10^6 cells
PROPERTY_LABEL: hepatocyte CLint (µL/min/1e6 cells)

The cases that follow already have their hepatocyte CLint on record.
N#Cc1cccc(-c2cc(Cl)ccc2OCC(=O)O)c1    5
Nc1ccc(OCC(=O)O)c(-c2ccccc2)c1    64
CCS(=O)(=O)c1ccc(-c2cc(C(F)(F)F)ccc2O[C@H](C)C(=O)O)c(C)c1    23

I = CS(=O)(=O)c1ccc(OCC(=O)O)c(-c2ccccc2)c1
II = CCS(=O)(=O)c1ccc(-c2cc(Cl)ccc2OCC(=O)O)c(F)c1
III = CCS(=O)(=O)c1ccc(-c2cc(C(F)(F)F)ccc2O[C@@H](C)C(=O)O)c(C)c1
Prompt line: Please list the entries, largest hepatocyte CLint first. Put the labels in the requested order and write them down.
Response line: III, I, II
(III: 10 µL/min/1e6 cells, I: 6 µL/min/1e6 cells, II: 4 µL/min/1e6 cells)
